testSystem: Human Glypican3-Fc (Homo sapiens, UniProt P51654)
Sequence (P51654 with tags, fused parts or gaps limits assumed): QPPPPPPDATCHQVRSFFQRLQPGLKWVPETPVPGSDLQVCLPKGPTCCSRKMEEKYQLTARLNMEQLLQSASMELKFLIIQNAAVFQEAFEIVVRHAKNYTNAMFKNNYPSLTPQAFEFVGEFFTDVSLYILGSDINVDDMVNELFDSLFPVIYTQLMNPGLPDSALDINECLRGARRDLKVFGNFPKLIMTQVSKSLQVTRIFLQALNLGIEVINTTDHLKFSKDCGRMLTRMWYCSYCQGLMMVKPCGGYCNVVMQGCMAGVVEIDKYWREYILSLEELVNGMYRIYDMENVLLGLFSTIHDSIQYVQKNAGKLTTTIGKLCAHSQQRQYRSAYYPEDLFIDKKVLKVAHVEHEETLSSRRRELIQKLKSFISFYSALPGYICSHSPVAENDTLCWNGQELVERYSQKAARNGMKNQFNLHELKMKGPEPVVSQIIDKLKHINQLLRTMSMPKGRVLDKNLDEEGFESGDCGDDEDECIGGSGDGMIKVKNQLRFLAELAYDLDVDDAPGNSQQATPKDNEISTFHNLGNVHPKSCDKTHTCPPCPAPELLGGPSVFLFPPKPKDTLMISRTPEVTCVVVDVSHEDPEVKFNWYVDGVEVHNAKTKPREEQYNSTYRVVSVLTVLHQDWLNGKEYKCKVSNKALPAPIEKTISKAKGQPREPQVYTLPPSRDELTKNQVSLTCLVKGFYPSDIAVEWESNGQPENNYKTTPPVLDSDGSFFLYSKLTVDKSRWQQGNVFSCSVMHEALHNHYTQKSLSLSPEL
measurementProtocol: SPR binding to Glypican-3, Method B-3 (Glypican3-Fc captured on Protein A chip, 5-point dilution series)
testConditions: SPR method B-3
measuredAttribute: Kd (nM)
Give a bare numeral; the unit nM is implied.

Q: Consider the compound CC[C@H](C)[C@@H]1NC(=O)[C@H]([C@@H](C)OC)NC(=O)[C@H](Cc2ccc(C(=O)O)cc2)NC(=O)[C@H](CNC(=O)N2CCN(CC(=O)O)CC2)N(C)C(=O)[C@H](CC(=O)O)NC(=O)[C@H](CCCCNC(=O)N2CCN(CC(=O)O)CC2)N(C)C(=O)[C@H](CCCCN)N(C)C(=O)CSC[C@@H](C(N)=O)N(C)C(=O)[C@H](Cc2ccc(-c3ccccc3)nc2)NC(=O)CNC(=O)[C@H](Cc2ccc3ccncc3c2)N(C)C(=O)[C@H](Cc2ccc(OCC(=O)O)cc2)NC1=O [Conjugate 2-29] and give its measured Kd.
Ans: 1
